Molecular target: T1, Macaca fascicularis PDGFRb.mmh (Macaca fascicularis)
T1 construct: Soluble monomeric construct; also called mfPDGFRb.mmh
T1 chain: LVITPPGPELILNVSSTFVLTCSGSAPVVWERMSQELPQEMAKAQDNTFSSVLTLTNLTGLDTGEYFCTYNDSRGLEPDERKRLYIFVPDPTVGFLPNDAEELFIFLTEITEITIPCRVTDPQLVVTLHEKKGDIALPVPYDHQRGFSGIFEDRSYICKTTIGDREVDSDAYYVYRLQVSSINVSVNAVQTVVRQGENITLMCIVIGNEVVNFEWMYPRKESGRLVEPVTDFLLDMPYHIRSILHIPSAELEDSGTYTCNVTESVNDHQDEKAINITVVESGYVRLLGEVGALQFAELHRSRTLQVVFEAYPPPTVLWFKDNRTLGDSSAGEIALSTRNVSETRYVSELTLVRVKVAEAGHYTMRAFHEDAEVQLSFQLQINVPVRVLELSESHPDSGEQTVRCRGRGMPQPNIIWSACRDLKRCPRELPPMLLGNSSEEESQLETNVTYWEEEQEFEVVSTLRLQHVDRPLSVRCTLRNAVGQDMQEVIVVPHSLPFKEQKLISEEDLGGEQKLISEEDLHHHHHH
Assay: SPR, mAb captured, 37 C
Description: Antibodies, expressed as either mouse Fc (prefix H1M; H2M) or human Fc (prefix H4H), were captured on their respective anti-Fc sensor surfaces (Mab capture format). […] Kinetic association (kₐ) and dissociation (kd) rate constants were determined by processing and fitting the data to a 1:1 binding model using Scrubber 2.0 curve fitting software.
Overview of reported pKd across a group of binders:
FYI, pKd means -log10 of a concentration in mol per litre.

binder="H4H3374N (antibody, human IgG4, V domains shown, human IgG4 Fc (H4H prefix)) VH: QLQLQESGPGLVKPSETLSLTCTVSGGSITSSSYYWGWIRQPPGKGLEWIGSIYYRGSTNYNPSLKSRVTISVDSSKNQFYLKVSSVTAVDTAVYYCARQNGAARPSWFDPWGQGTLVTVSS VL: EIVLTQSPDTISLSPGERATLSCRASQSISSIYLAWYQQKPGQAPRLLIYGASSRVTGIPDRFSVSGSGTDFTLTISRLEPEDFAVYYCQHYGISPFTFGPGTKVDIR" reported_value=8.58
binder="H4H3095S (antibody, human IgG4, V domains shown, human IgG4 Fc (H4H prefix)) VH: EVQLVESGGGLVQPGGSLRLSCGASGFTFSSYWMTWVRQAPGKGLEWVGNINQDGSEKYSVDSVKGRFTISRDNAKNSLYLQMNRVRAEDTAVYYCSRDLVPPRQGDNYYYFGMDVWGLGTTVTVSS VL: DIQMTQSPSTLSASVGDRVIITCRASQNINNWLAWYQQQPGKAPKLLIYEASSLESGVPSRFSGSGSGTEFTLTIGSLQPDDFATYYCQHYNSYSRTFGQGTKVDIK" reported_value=7.48

Proceed to the following item.
query: If you can, please state the reported pKd value of H4H3098S (antibody, human IgG4, V domains shown, human IgG4 Fc (H4H prefix)) VH: EVQLVESGGGVVQPGRSLRLSCAASGFTFSNYGMHWVRQAPGKGLEWVTVIWYDGSYKYYADSVKGRFTISRDNSKNRLYLQMNSLRAEDTAVYYCARGELGDAFDIWGQGTMVTVSS VL: DIQMTQSPSTLSASVGDRLTITCRASQSISTWLAWYQQKPGKAPTLLIYKASSLESGVPSRFSGSGSGTDFTLTISSLQPDDFATYYCQQYKTSWTFGQGTKLEIKR .
result: 7.02

Values from patent US20170210813A1
